target.of.assay: Mannose-6-phosphate isomerase (Escherichia coli (strain K12))
Sequence (P00946 whole entry): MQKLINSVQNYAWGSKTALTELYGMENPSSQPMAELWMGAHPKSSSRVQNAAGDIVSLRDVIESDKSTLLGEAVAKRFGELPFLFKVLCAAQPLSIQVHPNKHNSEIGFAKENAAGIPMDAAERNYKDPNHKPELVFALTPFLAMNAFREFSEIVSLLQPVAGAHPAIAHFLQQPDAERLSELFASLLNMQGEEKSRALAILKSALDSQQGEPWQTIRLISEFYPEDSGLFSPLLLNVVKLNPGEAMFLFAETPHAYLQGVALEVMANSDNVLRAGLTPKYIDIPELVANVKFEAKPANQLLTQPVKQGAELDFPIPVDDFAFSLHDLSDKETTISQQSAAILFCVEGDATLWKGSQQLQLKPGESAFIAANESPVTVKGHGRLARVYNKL
test.summary: Inhibition of Escherichia coli type I phosphomannose isomerase assessed as D-mannose 6-phosphate to D-fructose 6-phosphate isomerization at pH 7.1 by PGI/G6PDH coupled enzyme spectrophotometric assay
measured.quantity: pKi
Please express pKi as -log10 of the molar concentration.

Challenge: What value of pKi on Mannose-6-phosphate isomerase (Escherichia coli (strain K12)) does O=C(O)C(C[C@H]1OC(O)[C@@H](O)[C@@H](O)[C@@H]1O)C(=O)O (stereo partly specified) have?
Response given: 3.94

----------
target.of.assay: Mannose-6-phosphate isomerase (Escherichia coli (strain K12))
test.summary: Inhibition of Escherichia coli type I phosphomannose isomerase assessed as D-mannose 6-phosphate to D-fructose 6-phosphate isomerization at pH 7.1 by PGI/G6PDH coupled enzyme spectrophotometric assay
measured.quantity: IC50 (µM)
Output spec: scalar in µM, unitless text.

Challenge: May I ask what IC50 has been recorded for O=C(O)CC[C@H]1OC(O)[C@@H](O)[C@@H](O)[C@@H]1O (stereo not given in full) ?
Response given: 4600

Challenge: May I ask what IC50 has been recorded for `O=C(NO)[C@@H](O)[C@H](O)[C@H](O)CCP(=O)(O)O.ONO.ONO.ONO` ?
Response given: 370

Challenge: May I ask what IC50 has been recorded for O=C(O)C(C[C@H]1OC(O)[C@@H](O)[C@@H](O)[C@@H]1O)C(=O)O (stereo not given in full) ?
Response given: 199
